target: Delta-type opioid receptor (Homo sapiens) (UniProt P41143); test: Agonist activity at recombinant human DOR expressed in HEK293T cells assessed as inhibition of forskolin-stimulated cAMP level at 10 uM preincubated for 15 to 20 mins followed by forskolin addition by GloSensor assay relative to control; type: functional, cell-based; settings: HEK-293T
Sequence (P41143 whole entry): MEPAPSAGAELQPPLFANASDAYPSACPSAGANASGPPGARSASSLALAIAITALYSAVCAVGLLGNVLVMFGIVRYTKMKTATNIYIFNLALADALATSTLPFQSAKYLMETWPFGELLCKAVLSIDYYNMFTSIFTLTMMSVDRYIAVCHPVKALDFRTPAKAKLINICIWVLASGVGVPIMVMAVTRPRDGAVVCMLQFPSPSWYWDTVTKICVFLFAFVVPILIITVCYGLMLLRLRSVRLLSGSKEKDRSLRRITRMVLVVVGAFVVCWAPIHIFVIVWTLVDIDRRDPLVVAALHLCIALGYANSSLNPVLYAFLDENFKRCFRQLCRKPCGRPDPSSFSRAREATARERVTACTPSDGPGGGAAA
Calls of active or inactive are those of the source. No cut-off for these calls is given here.

# compound, measured.target, inhibition
data = [
    ("CC1(c2cccc(O)c2)CCN(C/C(=C\\c2ccccc2)C(=O)O)CC1", "Delta-type opioid receptor (Homo sapiens) (UniProt P41143)", "inactive"),
    ("CCOC(=O)C(NC(=O)/C(=C/c1ccccc1)CN1CCN(c2nsc3ccccc23)CC1)C(C)C (centres undefined)", "Delta-type opioid receptor (Homo sapiens) (UniProt P41143)", "inactive"),
    ("O=C(O)/C(=C/c1ccccc1)CN1CCN(c2cccc(Cl)c2Cl)CC1", "Delta-type opioid receptor (Homo sapiens) (UniProt P41143)", "inactive"),
    ("CC(C)[C@H](NC(=O)/C(=C/c1ccccc1)CN1CC[C@@](C)(c2cccc(O)c2)[C@@H](C)C1)C(=O)O", "Delta-type opioid receptor (Homo sapiens) (UniProt P41143)", "inactive"),
    ("C[C@H]1CN(C[C@H](Cc2ccccc2)C(=O)NCC(=O)O)CC[C@@]1(C)c1cccc(O)c1", "Delta-type opioid receptor (Homo sapiens) (UniProt P41143)", "inactive"),
    ("CC(C)C[C@H](NC(=O)/C(=C/c1ccccc1)CN1CC[C@@](C)(c2cccc(O)c2)[C@@H](C)C1)C(=O)O", "Delta-type opioid receptor (Homo sapiens) (UniProt P41143)", "inactive"),
    ("CCC(C)C(NC(=O)/C(=C/c1ccccc1)CN1CC[C@@](C)(c2cccc(O)c2)[C@@H](C)C1)C(=O)O (some centres undefined)", "Delta-type opioid receptor (Homo sapiens) (UniProt P41143)", "inactive"),
    ("CC(C)[C@H](NC(=O)/C(=C/c1ccccc1)CN1CCN(c2ccc(Cl)cc2)CC1)C(=O)O", "Delta-type opioid receptor (Homo sapiens) (UniProt P41143)", "inactive"),
    ("CCCC(NC(=O)/C(=C/c1ccccc1)CN1CC[C@@](C)(c2cccc(O)c2)[C@@H](C)C1)C(=O)O (some centres undefined)", "Delta-type opioid receptor (Homo sapiens) (UniProt P41143)", "inactive"),
]

---

biological target: Kappa-type opioid receptor (Homo sapiens); assay: Agonist activity at recombinant human KOR expressed in HEK293T cells assessed as inhibition of forskolin-stimulated cAMP level preincubated for 15 to 20 mins followed by forskolin addition by GloSensor assay; format: functional, cell-based; settings: HEK-293T
The source made the active and inactive calls. No cut-off for these calls is given here.

# compound, inhibition
data = [
    ("COc1cccc(N2CCN(C/C(=C\\c3ccccc3)C(=O)NCC(=O)O)CC2)c1", "inactive"),
    ("O=C(O)CNC(=O)/C(=C/c1ccccc1)CN1CCN(c2ccc(O)cc2)CC1", "inactive"),
    ("CCCC(NC(=O)/C(=C/c1ccccc1)CN1CCN(c2ccc(O)cc2)CC1)C(=O)O (stereo not drawn)", "inactive"),
    ("CC(C)C[C@H](NC(=O)/C(=C/c1ccccc1)CN1CCN(c2ccc(O)cc2)CC1)C(=O)O", "inactive"),
    ("COc1ccccc1N1CCN(C/C(=C\\c2ccccc2)C(=O)NCC(=O)O)CC1", "inactive"),
    ("COc1ccc(N2CCN(C/C(=C\\c3ccccc3)C(=O)NCC(=O)O)CC2)cc1", "inactive"),
    ("CCC(C)C(NC(=O)/C(=C/c1ccccc1)CN1CCN(c2ccc(O)cc2)CC1)C(=O)O (stereo not drawn)", "inactive"),
    ("CC(C)[C@H](NC(=O)/C(=C/c1ccccc1)CN1CCN(c2ccc(O)cc2)CC1)C(=O)O", "inactive"),
]

---

molecular target: Mu-type opioid receptor (Homo sapiens, UniProt P35372); conditions: HEK-293T, at 10 µM
Sequence (P35372 whole entry): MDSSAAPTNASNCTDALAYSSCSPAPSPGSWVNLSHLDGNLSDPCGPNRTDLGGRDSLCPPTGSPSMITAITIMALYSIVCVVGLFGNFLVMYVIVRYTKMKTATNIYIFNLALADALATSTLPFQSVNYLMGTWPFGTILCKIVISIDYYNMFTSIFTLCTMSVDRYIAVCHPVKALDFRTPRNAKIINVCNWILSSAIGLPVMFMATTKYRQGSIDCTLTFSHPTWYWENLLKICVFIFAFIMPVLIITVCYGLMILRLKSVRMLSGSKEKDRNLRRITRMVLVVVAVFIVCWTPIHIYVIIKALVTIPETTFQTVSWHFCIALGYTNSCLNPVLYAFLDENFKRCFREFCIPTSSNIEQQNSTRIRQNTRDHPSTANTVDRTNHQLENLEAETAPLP
Description: Antagonist activity at recombinant human MOR expressed in HEK293T cells assessed as reduction in DAMGO-induced inhibition of forskolin-stimulated cAMP level at 10 uM preincubated for 15 to 20 mins followed by DAMGO and forskolin addition by GloSensor assay relative to control
The source made the active and inactive calls. The rule behind the calls is not given here.

# molecule, inhibition
data = [
    ("CCCC(NC(=O)/C(=C/c1ccccc1)CN1CC[C@@](C)(c2cccc(O)c2)[C@@H](C)C1)C(=O)O (stereo not given in full)", "50%"),
    ("O=C(O)CNC(=O)/C(=C/c1ccccc1)CN1CCN(c2ccc(O)cc2)CC1", "inactive"),
    ("CC1(c2cccc(O)c2)CCN(C/C(=C\\c2ccccc2)C(=O)O)CC1", "50%"),
    ("COc1ccc(N2CCN(CC(Cc3ccccc3)C(=O)NCC(=O)O)CC2)cc1 (stereo not given)", "inactive"),
    ("CCCC(NC(=O)/C(=C/c1ccccc1)CN1CCN(c2ccc(O)cc2)CC1)C(=O)O (stereo not given)", "inactive"),
]

---

biological target: Mu-type opioid receptor (Homo sapiens); conditions: HEK-293T, at 10 µM
Activity calls are given as the source filed them. The calls are words filed in the database; no cut-off is given here.
metric: inhibition

# compound, metric, observed.result
data = [
    ("CC(C)[C@H](NC(=O)/C(=C/c1ccccc1)CN1CCN(c2ccc(Cl)cc2)CC1)C(=O)O", "inhibition", "inactive"),
    ("O=C(O)CNC(=O)C(Cc1ccccc1)CN1CCN(c2ccccc2O)CC1 (centres undefined)", "inhibition", "inactive"),
    ("CC(C)[C@H](NC(=O)/C(=C/c1ccccc1)CN1CC[C@@](C)(c2cccc(O)c2)[C@@H](C)C1)C(=O)O", "inhibition", "50%"),
    ("COc1ccccc1N1CCN(CC(Cc2ccccc2)C(=O)NCC(=O)O)CC1 (centres undefined)", "inhibition", "inactive"),
    ("O=C(O)CNC(=O)C(Cc1ccccc1)CN1CCN(c2ccccc2)CC1 (centres undefined)", "inhibition", "inactive"),
    ("COc1cccc(N2CCN(C/C(=C\\c3ccccc3)C(=O)NCC(=O)O)CC2)c1", "inhibition", "inactive"),
    ("COc1ccccc1N1CCN(C/C(=C\\c2ccccc2)C(=O)NCC(=O)O)CC1", "inhibition", "inactive"),
    ("C[C@H]1CN(C[C@H](Cc2ccccc2)C(=O)NCC(=O)O)CC[C@@]1(C)c1cccc(O)c1", "inhibition", "50%"),
    ("O=C(O)/C(=C/c1ccccc1)CN1CCN(c2cccc(Cl)c2Cl)CC1", "inhibition", "inactive"),
]

---

molecular target: Kappa-type opioid receptor (Homo sapiens, UniProt P41145); details: HEK-293T, at 10 µM
Sequence (P41145 whole entry): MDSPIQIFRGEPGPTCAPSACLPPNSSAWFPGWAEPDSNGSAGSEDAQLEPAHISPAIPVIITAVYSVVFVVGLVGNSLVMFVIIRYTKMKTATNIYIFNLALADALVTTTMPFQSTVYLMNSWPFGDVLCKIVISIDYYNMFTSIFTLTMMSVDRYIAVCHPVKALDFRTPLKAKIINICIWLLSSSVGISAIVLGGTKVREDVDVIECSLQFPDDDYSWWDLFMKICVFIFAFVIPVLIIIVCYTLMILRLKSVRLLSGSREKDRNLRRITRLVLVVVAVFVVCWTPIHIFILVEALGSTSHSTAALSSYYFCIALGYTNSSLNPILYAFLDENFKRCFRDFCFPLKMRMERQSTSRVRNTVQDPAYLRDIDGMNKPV
Description: Agonist activity at recombinant human KOR expressed in HEK293T cells assessed as inhibition of forskolin-stimulated cAMP level at 10 uM preincubated for 15 to 20 mins followed by forskolin addition by GloSensor assay relative to control
Calls of active or inactive are those of the source. The calls are words filed in the database; no cut-off is given here.
Labels: active, inactive

# compound, assigned.label
records = [
    ("CC1(c2cccc(O)c2)CCN(C/C(=C\\c2ccccc2)C(=O)O)CC1", "inactive"),
    ("COc1ccccc1N1CCN(CC(Cc2ccccc2)C(=O)NCC(=O)O)CC1 (stereo not given)", "inactive"),
    ("CCC(C)C(NC(=O)/C(=C/c1ccccc1)CN1CC[C@@](C)(c2cccc(O)c2)[C@@H](C)C1)C(=O)O (stereo not given in full)", "inactive"),
    ("CC(C)C[C@H](NC(=O)/C(=C/c1ccccc1)CN1CCN(c2ccc(O)cc2)CC1)C(=O)O", "inactive"),
    ("O=C(O)CNC(=O)/C(=C/c1ccccc1)CN1CCN(c2cccc(O)c2)CC1", "inactive"),
    ("O=C(O)CNC(=O)C(Cc1ccccc1)CN1CCN(c2ccccc2O)CC1 (stereo not given)", "inactive"),
    ("COc1ccc(N2CCN(CC(Cc3ccccc3)C(=O)NCC(=O)O)CC2)cc1 (stereo not given)", "inactive"),
    ("COc1cccc(N2CCN(C/C(=C\\c3ccccc3)C(=O)NCC(=O)O)CC2)c1", "inactive"),
    ("O=C(O)CNC(=O)/C(=C/c1ccccc1)CN1CCN(c2ccc(O)cc2)CC1", "inactive"),
    ("CCCC(NC(=O)/C(=C/c1ccccc1)CN1CC[C@@](C)(c2cccc(O)c2)[C@@H](C)C1)C(=O)O (stereo not given in full)", "inactive"),
    ("CCCC(NC(=O)/C(=C/c1ccccc1)CN1CCN(c2ccc(O)cc2)CC1)C(=O)O (stereo not given)", "inactive"),
    ("CC(C)[C@H](NC(=O)/C(=C/c1ccccc1)CN1CCN(c2ccc(O)cc2)CC1)C(=O)O", "inactive"),
    ("Cc1cccc(Oc2ccc(C(=O)N[C@H](CN3CCN(c4cccc(O)c4)[C@@H](C)C3)C(C)C)cc2)c1", "active"),
    ("CC(C)[C@H](NC(=O)/C(=C/c1ccccc1)CN1CC[C@@](C)(c2cccc(O)c2)[C@@H](C)C1)C(=O)O", "inactive"),
    ("CCC(C)C(NC(=O)/C(=C/c1ccccc1)CN1CCN(c2ccc(O)cc2)CC1)C(=O)O (stereo not given)", "inactive"),
]

---

biological target: Mu-type opioid receptor (Homo sapiens, UniProt P35372); conditions: HEK-293T, at 10 µM
Active and inactive are the calls of the source. The calls are words filed in the database; no cut-off is given here.

# compound, inhibition
data = [
    ("CC(C)C[C@H](NC(=O)/C(=C/c1ccccc1)CN1CCN(c2ccc(O)cc2)CC1)C(=O)O", "inactive"),
    ("COc1ccc(N2CCN(C/C(=C\\c3ccccc3)C(=O)NCC(=O)O)CC2)cc1", "inactive"),
    ("CC(C)[C@H](NC(=O)/C(=C/c1ccccc1)CN1CCN(c2ccc(O)cc2)CC1)C(=O)O", "inactive"),
    ("CC(C)C[C@H](NC(=O)/C(=C/c1ccccc1)CN1CC[C@@](C)(c2cccc(O)c2)[C@@H](C)C1)C(=O)O", "50%"),
    ("CCOC(=O)C(NC(=O)/C(=C/c1ccccc1)CN1CCN(c2nsc3ccccc23)CC1)C(C)C (configuration not stated)", "inactive"),
    ("CCC(C)C(NC(=O)/C(=C/c1ccccc1)CN1CCN(c2ccc(O)cc2)CC1)C(=O)O (configuration not stated)", "inactive"),
    ("CCC(C)C(NC(=O)/C(=C/c1ccccc1)CN1CC[C@@](C)(c2cccc(O)c2)[C@@H](C)C1)C(=O)O (some centres not stated)", "50%"),
]
